experiment-description: Cell Proliferation Assay against the TMD8 Cell Line (AID 651645);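 further: cells exposed to compound for 48 h before reading; 100% = DMSO and 0% = 9.2 µM bortezomib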
assay-setup: TMD8 DLBCL cell line proliferation/viability; at 46.1 µM (top of the series) unless noted
From the text: One class of targeted therapeutics showing early clinical success in killing of ABC DLBCL lines are small molecule inhibitors of the Bruton tyrosine kinase (BTK) 11. Prior to any combination assays, using an NCATS developed oncology compound library called the Mechanism of Interrogation Plate (MIPE), two well studied ABC DLBCL lines (TMD8 and HBL1) were screened using a cell viability assay (CellTiterGlo) and a 12-point titration series for each single agent. […]
Listed below: viability (% of control) values for each entry.
A number alone suffices; assume %.

Look over these answered cases.
> print(dat)
                                smiles.text  reported.measurement
1  Nc1nc(-c2nn(Cc3ccccc3F)c3ncccc23)nc(N)c1N1CCOCC1                  91.5
2  COc1ccc2c(c[n+](C)c3c4cc5c(cc4ccc23)OCO5)c1OC                  3.33
3  O=C(Oc1ccc([N+](=O)[O-])cc1)N1CCC(C(O)(c2ccc3c(c2)OCO3)c2ccc3c(c2)OCO3)CC1                  68.8
4  CC(=O)Nc1ccc(OC[C@](C)(O)C(=O)Nc2ccc([N+](=O)[O-])c(C(F)(F)F)c2)cc1                  86.6
5  Cc1ccccc1-n1c(Cn2cnc3c(N)ncnc32)nc2cccc(C)c2c1=O                  15.8

Per the record, CCCCN1CCC(CNC(=O)c2c3n(c4ccccc24)CCCO3)CC1 has viability (% of control) of 119

====

Tested on: Tov112D
experiment-description: Primary qHTS to identify gynecologic anti-cancer compounds using libraries of approved drugs and bioactive compounds (AID 1345084); further: nearly all actives have a fitted effect of over 55% in size
assay-setup: Gynecologic cancer cell panel viability, ATPlite luminescence, 48 h; series mostly up to 57.5 µM
Results filed as inconclusive are left out. Active and inactive are the calls of the source. The call rests on the fitted dose curve; in most records, active means well fitted cell-killing curve with a large enough effect; inconclusive means small, poorly fitted or top-dose-only effect, or effect the other way; inactive means flat fitted curve, though single readings scatter.
Use one of these outcomes when replying: active, inactive

// below: answered compounds
> print(dat)
                                   compound     label
1  C/C=C(/C)C(=O)O[C@H]1C(C)=C2[C@H]([C@@H]1OC(=O)CCCCCCC)[C@@](C)(OC(C)=O)C[C@H](OC(=O)CCC)[C@@]1(O)[C@H]2OC(=O)[C@@]1(C)O    active
2  C=CCC1=C(C)C(OC(=O)C2C(C=C(C)C)C2(C)C)CC1=O (stereo not given)  inactive
3                   Nc1ccc(Sc2ccc(N)cc2)cc1  inactive
4             CCC1(CCC(C)C)C(=O)NC(=O)NC1=O  inactive
5  O=c1[nH]c2ccc(Cl)cc2c(N[C@@H]2CN3CCC2CC3)c1-c1nc2ccccc2[nH]1    active
6  CCc1c(C(=O)C(N)=O)c2c(OCC(=O)O)cccc2n1Cc1ccccc1  inactive
7  Cc1ccccc1-n1c(Cn2ncc3c(N)ncnc32)nc2cccc(C)c2c1=O  inactive
8        O=[N+]([O-])c1ccc([As](=O)(O)O)cc1  inactive
9                          O=C(O)COc1ccccc1  inactive

# fetch the recorded call for CC(C)N(CCNC(=O)CN1CCCC1=O)C(C)C here
inactive

====

experiment-description: Quantitative High-Throughput drug screen in 47 multiple myeloma cell lines against the NCATS MIPE library collection: SKMM1_PLB cell viability assay (AID 1919863); further: nearly all actives have a fitted effect of over 35% in size
assay-setup: SKMM1 myeloma viability, CellTiter-Glo ATP, 48 h; stronger effect = lower value
Results filed as inconclusive are left out.
metric-name: viability (%)
State just the number; it will be interpreted in %.

Recorded results for 3 compounds are shown here.
compound	viability (%)
CC(=Cc1csc(C)n1)[C@@H]1C[C@H]2O[C@]2(C)CCC[C@H](C)[C@@H](O)[C@@H](C)C(=O)C(C)(C)[C@@H](O)CC(=O)O1	69.9
COc1ccc(CC2NCCc3cc(OC)c(OC)cc32)cc1OC (stereo not given)	129
CN[C@@H]1Cc2cccc3[nH]c(=O)n(c23)C1	93.2

// C#C[C@]1(O)C=C[C@@H]2[C@@H]3CCC4=CC(=O)CC[C@@H]4[C@H]3CC[C@@]21CC : viability value = 126

// viability value for O=C(NCC1CCOCC1)c1cnc(Nc2ccc(Cl)cc2Cl)nc1C(F)(F)F : 104

Record Cc1c(N)nc([C@H](CC(N)=O)NC[C@@H](N)C(N)=O)nc1C(=O)N[C@H](C(=O)N[C@@H](C)[C@H](O)[C@@H](C)C(=O)N[C@@H](C(=O)NCCc1nc(-c2nc(C(=O)NCCC[S+](C)C)cs2)cs1)[C@@H](C)O)C(O[C@H]1O[C@H](CO)[C@H](O)[C@@H](O)[C@@H]1O[C@H]1O[C@H](CO)[C@@H](O)[C@H](OC(N)=O)[C@H]1O)c1cnc[nH]1 (stereo not given in full) . Reported viability: 89.3

// field: viability; key: COc1ccc2c(c1)[C@]13CCCCC1C(C2)N(C)CC3 (stereo not given in full) ; value = 120

In plain terms, O=C(Oc1ccc([N+](=O)[O-])cc1)N1CCN(Cc2cccc(Oc3ccccc3)c2)CC1 has a documented viability of 117

Per the records, this compound ( CCOC(=O)Nc1ccc(NCc2ccc(F)cc2)cc1N ) has viability equal to 119

====

experiment-description: Cytometry Cell-Based qHTS for Inhibitors of the mTORC1 Signaling Pathway in MEF cells (AID 2668)
assay-setup: mTORC1 pathway readout; series mostly up to 38.3 µM
Inconclusive results are not listed. Active and inactive are the calls of the source. Calls follow the shape of the dose curve; as a rule, active = well fitted inhibition curve with a large enough effect; inconclusive = small, poorly fitted or top-dose-only effect; inactive = flat fitted curve, though single readings scatter.
I would appreciate it if you answered using one of these outcomes: active, inactive

Please indicate how the test categorized NC(N)=NOCCC(N)C(=O)O (stereo not drawn) .
inactive

Dear all, I need the recorded test outcome for C/C=C(/C)C(=O)O[C@H]1C(C)=C2[C@H]([C@@H]1OC(=O)CCCCCCC)[C@@](C)(OC(C)=O)C[C@H](OC(=O)CCC)[C@@]1(O)[C@H]2OC(=O)[C@@]1(C)O , thank you.
active

Lab log entry: C[C@@H]1O[C@H](C[N+](C)(C)C)C[C@H]1O — outcome as called in the assay?
inactive

Hi, do you know how C=CCN1CC[C@]23CCCCC2[C@H]1Cc1ccc(O)cc13 (stereo partly drawn) came out in this test?
inactive

Please state the recorded outcome for this compound: C#CCOC(=O)C1=CCCN(C)C1
inactive

Per the records of this test, what outcome belongs to CCCCc1ccc(C(=O)O)nc1 ?
inactive

Could you please tell me the result logged for CNCCc1ccc(O)c(O)c1 in this assay?
inactive

====

System: Tov112D
experiment-description: Primary qHTS to identify gynecologic anti-cancer compounds using libraries of approved drugs and bioactive compounds (AID 1345084); further: nearly all actives have a fitted effect of over 55% in size
assay-setup: Gynecologic cancer cell panel viability, ATPlite luminescence, 48 h; series mostly up to 57.5 µM
Inconclusive results are not listed. Activity calls are given as the source filed them. Calls come from the whole dose curve; as a rule, active = well fitted cell-killing curve with a large enough effect; inconclusive = small, poorly fitted or top-dose-only effect, or effect the other way; inactive = flat fitted curve, though single readings scatter.
One label from this list, please: 1 for active, 0 for inactive

> print(dat)
                                   compound  label
1               CN[C@@H](C)[C@H](O)c1ccccc1      0
2        S=C(NC1CCCCC1)N1CCC(c2cnc[nH]2)CC1      0
3                                    OCCCBr      0
4              S=C(SSC(=S)N1CCCCC1)N1CCCCC1      1
5  O=C(O)CNC(=O)c1c(O)c2ccccc2n(Cc2ccccc2)c1=O      0

Assay result, entry CC(O)CN1CCN(CC(=O)[O-])CCN(CC(=O)[O-])CCN(CC(=O)[O-])CC1.[Gd+3] (stereo unspecified) — outcome?
0

====

experiment-description: qHTS profiling of the MIPE4 collection as inhibitors of Plasmodium falciparum (3D7) proliferation (AID 743344);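 further: scaled between DMSO vehicle wells and 0.29 µM artemisinin as full inhibition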
assay-setup: P. falciparum 3D7 in erythrocytes, SYBR Green DNA fluorescence, 72 h; at 28.5 µM (top of the series)
Is parasite growth, % of DMSO control at least 80%? Then Criterion met. If not, Criterion not met.

Worked set:
molecule	label
CC[C@@H](C(N)=O)N1CCCC1=O	Criterion not met
C[C@@H]1[C@H](O)[C@@H](C)C=CC=CCCC=CC=CC=CC=C[C@H](O[C@H]2O[C@@H](C)[C@H](O)[C@@H](N)[C@@H]2O)CC2O[C@](O)(C[C@@H](O)[C@H](O)CC[C@@H](O)C[C@@H](O)C[C@@H](O)CC(=O)O[C@H]1C)C[C@H](O)[C@H]2C(=O)O	Criterion met
C[C@]12CCC(=O)C(O)=C1CC[C@@H]1[C@H]3CCC(=O)[C@@]3(C)CC[C@@H]12	Criterion not met
Cc1ccccc1-n1c(Cn2ncc3c(N)ncnc32)nc2cccc(C)c2c1=O	Criterion not met
COc1cc2cc(c1Cl)N(C)C(=O)C[C@H](OC(=O)C(C)C)[C@]1(C)O[C@H]1[C@H](C)[C@@H]1C[C@@](O)(NC(=O)O1)[C@H](OC)C=CC=C(C)C2	Criterion not met
COC(=O)[C@@H](N)CCCN=C(N)N[N+](=O)[O-]	Criterion met
C=C[C@@H]1CN2CCC1C[C@@H]2[C@@H](O)c1ccnc2ccccc12 (some centres undefined)	Criterion not met
O=c1[nH]c2ccccc2n1C1CCN(Cc2ccc(-c3[nH]c4cc5ncnc5cc4nc3-c3ccccc3)cc2)CC1	Criterion not met
CC(C)(O)C=CC(=O)[C@](C)(O)[C@H]1[C@H](O)C[C@]2(C)[C@@H]3CC=C4[C@@H](C=C(O)C(=O)C4(C)C)[C@]3(C)C(=O)C[C@@]12C	Criterion not met
O=C(Oc1ccc([N+](=O)[O-])cc1)N1CCC(C(O)(c2ccc3c(c2)OCO3)c2ccc3c(c2)OCO3)CC1	Criterion not met

Say whether CO[C@H]1CCC(O[C@H]2C[C@H]([C@]3(C)CC[C@]4(C[C@H](O)[C@@H](C)[C@@H]([C@@H](C)C=C(C)C(=O)[C@H](C)C[C@H](C)C(=O)O)O4)O3)O[C@]3(O[C@@H]([C@H]4O[C@@](O)(CO)[C@H](C)C[C@H]4C)C[C@H]3C)[C@H]2C)O[C@H]1C (some centres undefined) shows parasite growth, % of DMSO control of 80% or more.
Criterion not met

Dear colleague, could you confirm whether C[C@H]([C@H](O)CCC(C)(C)O)[C@H]1CC[C@@]2(O)C3=CC(=O)[C@@H]4C[C@@H](O)[C@@H](O)C[C@]4(C)[C@@H]3CC[C@]12C has parasite growth, % of DMSO control at or above 80%?
Criterion met

Does the molecule CC(C)(C)[C@]1(O)C[C@@H]2OC(=O)C[C@@]23C(=O)O[C@@H]2OC(=O)[C@H](O)C213 (some centres undefined) have recorded parasite growth, % of DMSO control that is 80% or more?
Criterion met

Could you verify whether the entry CN1CCN(c2ccc([N+](=O)[O-])c3no[n+]([O-])c23)CC1 shows parasite growth, % of DMSO control of no less than 80%?
Criterion not met
